Numbers sourced from paper PMC11881906.

Measurement Protocol: Plasma pharmacokinetic study
Type: in vivo, CD-1 mice
Setup Conditions: male, CD-1, mouse, plasma; IV 5 mg/kg, 2 hr
Text: […]
Property: concentration at 2 h (ng/mL)
Report as a plain number; the unit ng/mL is understood.

Look up concentration at 2 h for this molecule: CC(C)=CCOc1cc(OCCCNC(=N)N)cc2oc3cc(OCCCNC(=N)N)ccc3c(=O)c12
282

* * *

Measurement Protocol: Plasma pharmacokinetic study
Format: in vivo, CD-1 mice
Setup Conditions: male, CD-1, mouse, plasma; SC 40 mg/kg
Property: AUC(0-inf)

Look up AUC(0-inf) for this molecule: CC(C)=CCOc1cc(OCCCNC(=N)N)cc2oc3cc(OCCCNC(=N)N)ccc3c(=O)c12
60100 ng·h/mL

* * *

Measurement Protocol: CCK-8 cytotoxicity assay
Type: cell-based
Setup Conditions: mouse, NCTC clone 929 fibroblast cells, 50 μg/ml, read-out: %Viable cells NCTC clone 929 cells
Property: viability at 24 h, 50 μg/ml
Answer with the number, then the unit.

Look up viability at 24 h, 50 μg/ml for this molecule: CC(C)=CCOc1cc(OCCCNC(=N)N)cc2oc3cc(OCCCNC(=N)N)ccc3c(=O)c12 [XT17]
51.6%

* * *

Measurement Protocol: Plasma pharmacokinetic study
Assay type: in vivo, CD-1 mice
Setup Conditions: male, CD-1, mouse, plasma, sc, 40 mg/kg, sc 40 mg/kg
Property: half-life (h)
Report as a plain number; the unit h is understood.

Look up half-life for this compound: CC(C)=CCOc1cc(OCCCNC(=N)N)cc2oc3cc(OCCCNC(=N)N)ccc3c(=O)c12
4.68

* * *

Measurement Protocol: CCK-8 cytotoxicity assay
Type: cell-based
Setup Conditions: mouse, NCTC clone 929 fibroblast cells, 12.5 μg/ml, read-out: %Viable cells NCTC clone 929 cells
Property: viability at 24 h, 12.5 μg/ml

Look up viability at 24 h, 12.5 μg/ml for this compound: CC(C)=CCOc1cc(OCCCNC(=N)N)cc2oc3cc(OCCCNC(=N)N)ccc3c(=O)c12
87.7%

* * *

Measurement Protocol: Plasma pharmacokinetic study
Format: in vivo, CD-1 mice
Setup Conditions: male, CD-1, mouse, plasma, ip, 20 mg/kg, IP 20 mg/kg
Property: Cmax (ng/mL)
Report as a plain number; the unit ng/mL is understood.

Look up Cmax for this compound: CC(C)=CCOc1cc(OCCCNC(=N)N)cc2oc3cc(OCCCNC(=N)N)ccc3c(=O)c12
18400

* * *

Measurement Protocol: Plasma pharmacokinetic study
Type: in vivo, CD-1 mice
Setup Conditions: male, CD-1, mouse, plasma; SC 40 mg/kg, 4 hr
Property: concentration at 4 h (ng/mL)
Report as a plain number; the unit ng/mL is understood.

Look up concentration at 4 h for this compound: CC(C)=CCOc1cc(OCCCNC(=N)N)cc2oc3cc(OCCCNC(=N)N)ccc3c(=O)c12
3560

* * *

Measurement Protocol: CCK-8 cytotoxicity assay
Format: cell-based
Setup Conditions: mouse, NCTC clone 929 fibroblast cells, 3.125 μg/ml, read-out: %Viable cells NCTC clone 929 cells
Method: Cytotoxicity of the compound tested was assessed by CCK-8 assays as previously described ([71]). […] Following a 24-hour incubation, 10 μl of CCK-8 reagent was added to each well and incubated for 1 hour. The absorbance at 450 nm was measured by a microplate reader. All measurements were repeated three times with duplicates each time.
Property: viability at 24 h, 3.125 μg/ml (%)
Report as a plain number; the unit % is understood.

Look up viability at 24 h, 3.125 μg/ml for this compound: CC(C)=CCOc1cc(OCCCNC(=N)N)cc2oc3cc(OCCCNC(=N)N)ccc3c(=O)c12 [XT17]
90
